- assayProtocol: Cmax in ICR mouse at 5 mg/kg, iv by LC-MS/MS analysis
- Format: ADME, organism-based
- Parameters: dose 5 mg/kg, route intravenous
- protocolConditions: in vivo

smilesString | Cmax, ng/mL
Clc1ccc(-c2n[nH]c3c2CCNCC3)cc1 | 2200

----------
Protein target, amino acids: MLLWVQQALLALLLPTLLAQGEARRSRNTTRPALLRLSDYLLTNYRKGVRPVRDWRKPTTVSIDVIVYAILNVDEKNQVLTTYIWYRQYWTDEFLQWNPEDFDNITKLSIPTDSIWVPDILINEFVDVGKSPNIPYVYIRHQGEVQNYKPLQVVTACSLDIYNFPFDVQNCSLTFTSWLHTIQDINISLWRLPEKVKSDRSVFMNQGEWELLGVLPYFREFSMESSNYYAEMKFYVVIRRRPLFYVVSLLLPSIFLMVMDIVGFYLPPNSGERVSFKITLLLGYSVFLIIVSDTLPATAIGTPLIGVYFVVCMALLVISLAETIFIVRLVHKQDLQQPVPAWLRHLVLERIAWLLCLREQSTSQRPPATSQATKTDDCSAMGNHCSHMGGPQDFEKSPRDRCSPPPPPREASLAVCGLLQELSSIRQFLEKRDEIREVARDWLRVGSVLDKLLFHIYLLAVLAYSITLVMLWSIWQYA
Below, each of the compounds is paired with its reported Ki value.
quantityKind: Ki (nM)

smilesString | censorSymbol | recordedMeasurement
Clc1ccc(-c2n[nH]c3c2CCNCC3)cc1 | > | 10000
Clc1ccc(-c2noc3c2CCNCC3)cc1 | = | 303
Fc1ccc(-c2noc3c2CCNCC3)cc1 | = | 703
